Data origin: ChEMBL document CHEMBL3865800

- Assay Info: Binding affinity to biotinylated 5'-Pu22-3'-labelled c-myc G-quadruplex DNA (unknown origin) after 240 secs by SPR assay
Each record is given met if its reported Kd is strictly below 3 µM. Records at or above 3 µM are given not met.

Use the examples below as a reference point.
>  <Structure Smiles>
CCN(CC)CCOc1ccc(Nc2nc(N(CC)CC)nc3ccccc23)cc1

>  <Assigned Category>
met

$$$$
>  <Structure Smiles>
CCN(CC)CCC(=O)Nc1ccc(Nc2nc(-c3ccccc3NC(=O)CCN(CC)CC)nc3ccccc23)cc1

>  <Assigned Category>
met

$$$$
>  <Structure Smiles>
Oc1ccccc1-c1nc(Nc2ccc(OCCN3CCCCC3)cc2)c2ccccc2n1

>  <Assigned Category>
not met

$$$$

Bench note: check whether O=C(CN1CCOCC1)Nc1ccc(Nc2nc(-c3ccccc3NC(=O)CN3CCOCC3)nc3ccccc23)cc1 shows Kd below 3 µM
not met

Quick check: does CCN(CC)CCOc1ccc(Nc2nc(-c3ccccc3O)nc3ccccc23)cc1 have Kd under 3 µM?
not met

Please state whether Kd is below 3 µM for CCN(CC)CCNCCOc1ccc(Nc2nc(-c3ccccc3O)nc3ccccc23)cc1
not met

Here's an entry: CCN(CC)CC(=O)Nc1ccc(Nc2nc(N(CC)CC)nc3ccccc23)cc1 . Is its Kd below 3 µM?
not met

Decide: Kd of CN1CCN(CCOc2ccc(Nc3nc(-c4ccccc4O)nc4ccccc34)cc2)CC1 strictly below 3 µM?
not met

Is the reported Kd for O=C(CCN1CCCCC1)Nc1ccc(Nc2nc(-c3ccccc3NC(=O)CCN3CCCCC3)nc3ccccc23)cc1 strictly below 3 µM?
met
